Target: hOATP1B3 (Homo sapiens)
Sequence (Q9NPD5 1-702): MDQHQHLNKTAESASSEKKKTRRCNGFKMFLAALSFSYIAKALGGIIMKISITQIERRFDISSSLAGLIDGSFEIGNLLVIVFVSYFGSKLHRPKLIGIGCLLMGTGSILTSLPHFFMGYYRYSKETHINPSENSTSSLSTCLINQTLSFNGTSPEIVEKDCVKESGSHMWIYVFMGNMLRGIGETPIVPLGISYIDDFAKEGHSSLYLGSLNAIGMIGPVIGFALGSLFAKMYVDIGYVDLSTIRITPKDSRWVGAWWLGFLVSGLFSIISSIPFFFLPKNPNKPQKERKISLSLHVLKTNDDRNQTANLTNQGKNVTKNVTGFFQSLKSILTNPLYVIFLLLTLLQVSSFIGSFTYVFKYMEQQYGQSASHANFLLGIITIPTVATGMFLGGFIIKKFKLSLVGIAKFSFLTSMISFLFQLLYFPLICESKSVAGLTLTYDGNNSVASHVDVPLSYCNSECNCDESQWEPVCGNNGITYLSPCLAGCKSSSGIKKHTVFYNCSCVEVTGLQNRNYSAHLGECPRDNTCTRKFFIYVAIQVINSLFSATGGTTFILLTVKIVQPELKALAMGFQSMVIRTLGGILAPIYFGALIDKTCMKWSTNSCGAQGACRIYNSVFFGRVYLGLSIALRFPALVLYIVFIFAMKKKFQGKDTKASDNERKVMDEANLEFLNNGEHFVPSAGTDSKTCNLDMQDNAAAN
readout-type: IC50 (µM)

INSERT INTO measurements (smiles_entry, numeric_readout) VALUES
  ('O=C(O)[C@H]1O[C@@H](Oc2cc3oc(-c4ccc(O)cc4)cc(=O)c3c(O)c2O)[C@H](O)[C@@H](O)[C@@H]1O', 45.5);

---

Molecular target: rOATP1B2 (Rattus norvegicus, UniProt Q9QZX8)
Sequence (Q9QZX8 1-687): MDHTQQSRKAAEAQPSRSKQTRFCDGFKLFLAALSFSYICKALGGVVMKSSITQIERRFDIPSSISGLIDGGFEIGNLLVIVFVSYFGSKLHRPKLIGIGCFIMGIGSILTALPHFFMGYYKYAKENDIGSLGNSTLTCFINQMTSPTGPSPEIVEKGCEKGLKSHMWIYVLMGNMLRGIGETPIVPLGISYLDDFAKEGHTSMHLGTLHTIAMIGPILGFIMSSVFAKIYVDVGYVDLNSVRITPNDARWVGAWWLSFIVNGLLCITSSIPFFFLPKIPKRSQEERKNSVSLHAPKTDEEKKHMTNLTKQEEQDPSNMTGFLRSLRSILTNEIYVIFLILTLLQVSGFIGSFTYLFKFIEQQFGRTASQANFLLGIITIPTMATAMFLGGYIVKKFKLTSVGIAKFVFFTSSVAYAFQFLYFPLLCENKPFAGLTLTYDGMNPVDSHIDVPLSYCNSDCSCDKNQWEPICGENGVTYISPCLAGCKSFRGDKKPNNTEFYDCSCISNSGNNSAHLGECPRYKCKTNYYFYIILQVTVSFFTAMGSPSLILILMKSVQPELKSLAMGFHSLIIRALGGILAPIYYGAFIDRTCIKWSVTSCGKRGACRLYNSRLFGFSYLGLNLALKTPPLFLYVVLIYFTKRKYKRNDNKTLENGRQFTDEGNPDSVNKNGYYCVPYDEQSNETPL
readout-type: IC50 (µM)

INSERT INTO measurements (smiles_entry, unit_tag, numeric_readout) VALUES
  ('O=C(O)[C@H]1O[C@@H](Oc2cc3oc(-c4ccc(O)cc4)cc(=O)c3c(O)c2O)[C@H](O)[C@@H](O)[C@@H]1O', 'µM', 27.6);
